Listing of recorded koff by entry.
- measured-target: T1, His-tagged human HtrA1 protease domain (human, UniProt Q92743 161-367)
- T1 construct: His-tagged protease domain; also called huHtrA1-PD-His; huHtrA1-PD
- T1 sequence (Q92743 other isoform, or with tags, fused parts or gaps limits assumed): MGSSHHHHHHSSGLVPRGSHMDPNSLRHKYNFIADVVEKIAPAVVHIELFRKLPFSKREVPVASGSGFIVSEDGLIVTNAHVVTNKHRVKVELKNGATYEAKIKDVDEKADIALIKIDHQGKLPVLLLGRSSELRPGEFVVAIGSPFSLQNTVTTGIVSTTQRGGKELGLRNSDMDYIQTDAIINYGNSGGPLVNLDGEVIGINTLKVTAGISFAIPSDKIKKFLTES
- procedure-text: BIACORE T200 SPR; Fab analyte over huHtrA1-PD-His captured by anti-His antibody

{"columns": ["binder", "koff [s⁻¹]"],
 "data": [
  ["h15H6.v2.APEG Fab (Fab, name in Kabat numbering, V domains shown, also called h15H6.v3; LC-N94A LC-P95 HC-D55E HC-G56) VH: EVQLVQSGAEVKKPGASVKVSCKASGYTFTDSEMHWVRQAPGQGLEWIGGVDPETEGAAYNQKFKGRATITRDTSTSTAYLELSSLRSEDTAVYYCTRGYDYDYALDYWGQGTLVTVSS VL: DIQMTQSPSSLSASVGDRVTITCRASSSVNFIHWYQQKPGKAPKPLISATSNLASGVPSRFSGSGSGTDFTLTISSLQPEDFATYYCQQWSSAPWTFGQGTKVEIK", 0.000172],
  ["APEG.LC347.HC13 (Fab, V domains shown, single member of the group m82) VH: EVQLVQSGAEVKKPGASVKVSCKASGYKFKDSEMHWVRQAPGQGLEWIGGVDPETEGAAYNQKFKGRATITRDTSTSTAYLELSSLRSEDTAVYYCTRGYDYDYALDYWGQGTLVTVSS VL: DIQMTQSPSSLSASVGDRVTITCRASSSVEFIHWYQQKPGKAPKPLISATSHLASGVPSRFSGSGSGTDFTLTISSLQPEDFATYYCQQWYSAPWTFGQGTKVEIK", "4.88e-05"]
]}

Reference for the values: patent US20170145113A1
